The measured values listed here are drawn from patent US9796711B2.

- tested_on: ΔF508-CFTR (Homo sapiens, UniProt P13569, DEL508-508)
- Construct: host or cells: CFBE41o-, doxycycline-inducible
- Sequence (P13569 with tags, fused parts or gaps DEL508-508): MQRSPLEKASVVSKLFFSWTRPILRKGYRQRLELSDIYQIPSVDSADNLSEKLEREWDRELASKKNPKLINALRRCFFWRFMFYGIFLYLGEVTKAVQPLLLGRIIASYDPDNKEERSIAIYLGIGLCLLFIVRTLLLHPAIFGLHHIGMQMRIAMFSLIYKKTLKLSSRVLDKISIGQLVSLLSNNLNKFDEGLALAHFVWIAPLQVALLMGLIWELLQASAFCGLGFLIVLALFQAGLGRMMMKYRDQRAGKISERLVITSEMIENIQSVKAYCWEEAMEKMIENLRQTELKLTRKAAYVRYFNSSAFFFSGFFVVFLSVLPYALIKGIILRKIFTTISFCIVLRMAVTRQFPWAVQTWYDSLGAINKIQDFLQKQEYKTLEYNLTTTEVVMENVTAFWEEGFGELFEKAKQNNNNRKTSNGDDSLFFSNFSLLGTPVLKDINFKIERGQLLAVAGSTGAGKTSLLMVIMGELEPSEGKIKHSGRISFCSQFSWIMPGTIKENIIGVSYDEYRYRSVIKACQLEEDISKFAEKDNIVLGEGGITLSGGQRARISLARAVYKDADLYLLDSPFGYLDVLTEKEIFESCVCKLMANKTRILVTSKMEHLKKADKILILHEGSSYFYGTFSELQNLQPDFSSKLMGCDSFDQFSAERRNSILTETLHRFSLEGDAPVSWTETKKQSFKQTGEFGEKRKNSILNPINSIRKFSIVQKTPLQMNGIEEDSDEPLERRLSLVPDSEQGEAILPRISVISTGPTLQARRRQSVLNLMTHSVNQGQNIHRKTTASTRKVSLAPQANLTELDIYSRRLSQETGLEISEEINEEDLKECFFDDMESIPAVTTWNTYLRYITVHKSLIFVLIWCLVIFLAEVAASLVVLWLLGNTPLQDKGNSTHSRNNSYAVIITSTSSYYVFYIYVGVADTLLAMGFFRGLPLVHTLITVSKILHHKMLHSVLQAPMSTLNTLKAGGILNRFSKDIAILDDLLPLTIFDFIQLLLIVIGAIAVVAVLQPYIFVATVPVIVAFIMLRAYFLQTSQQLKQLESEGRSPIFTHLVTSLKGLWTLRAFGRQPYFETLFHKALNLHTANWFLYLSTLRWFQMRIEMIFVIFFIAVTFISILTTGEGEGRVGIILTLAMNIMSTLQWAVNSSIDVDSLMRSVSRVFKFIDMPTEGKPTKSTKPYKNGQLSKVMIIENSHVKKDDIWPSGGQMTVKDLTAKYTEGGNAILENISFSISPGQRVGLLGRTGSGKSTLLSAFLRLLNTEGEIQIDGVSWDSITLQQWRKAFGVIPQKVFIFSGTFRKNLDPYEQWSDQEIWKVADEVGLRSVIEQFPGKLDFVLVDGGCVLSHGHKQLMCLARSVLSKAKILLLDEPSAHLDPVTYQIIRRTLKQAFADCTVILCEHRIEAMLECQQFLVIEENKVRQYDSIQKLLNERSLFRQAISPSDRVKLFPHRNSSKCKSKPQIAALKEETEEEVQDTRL
- experiment_description: CFTR cell surface levels using HRP-tagged ΔF508-CFTR expressing CFBE cells, intrinsic corrector capacity
- Format: cell-based
- experimental_parameters: HRP-tagged ΔF508-CFTR expressing CFBE cells; intrinsic corrector capacity (no co-corrector); 33° C., 20 hours; read-out: EC50
recorded_metric: EC50

Task item: Look up and report EC50, with ΔF508-CFTR (Homo sapiens, UniProt P13569, DEL508-508) as system, for CC(C)c1nn(C2CCCCC2)c2nc(C(=O)O)cc(C3=CC(C)(C)OC(C)(C)C3)c12 [compound 402]
Reply: 715 nM

Task item: Report value: EC50, system: ΔF508-CFTR (Homo sapiens, UniProt P13569, DEL508-508), compound: CC(C)c1nn(-c2ccc(F)cc2)c2nc(C(=O)O)cc(N3CCC4(CCO4)CC3)c12 [compound 398]
Reply: 1290 nM

Task item: GET EC50 where system = ΔF508-CFTR (Homo sapiens, UniProt P13569, DEL508-508) and item = O=C(O)c1cc(N2CCC3(CC2)CC(F)(F)CO3)c2c(C3CCC3)nn(-c3ccccc3)c2n1 [compound 453]
Reply: 716 nM
